assay: Stability of the compound in PBS at 40 uM at pH 7.4 at 25 degC measured for 30 mins by UV-Vis spectrophotometric analysis; assay type: physicochemical; conditions: buffer, pH 7.4, 0.5 h
measurement-type: Stability

> print(dat)
                                   compound  endpoint.result
1  COc1ccc(/C=C/C(=O)C(C)(C)C(=O)/C=C/c2ccc(OC)c(OC)c2)cc1OC         Unstable
2  CC(C)(C(=O)/C=C/c1ccccc1)C(=O)/C=C/c1ccccc1         Unstable
3  CC(C)(C(=O)/C=C/c1ccc(O)c(O)c1)C(=O)/C=C/c1ccc(O)c(O)c1           Stable
4  COc1cc(/C=C/C(=O)C(C)(C)C(=O)/C=C/c2ccc(O)c(OC)c2)ccc1O           Stable

Attention now turns to another entry.
INPUT: May I ask what Stability has been recorded for COc1cc(/C=C/C(=O)CC(=O)/C=C/c2ccc(O)c(OC)c2)ccc1O [CURCUMIN] ?
OUTPUT: Unstable
